- test-description: Selectivity index, ratio of CC50 for cytotoxicity against mouse RAW264.7 cells to IC50 for antiinflammatory activity against mouse RAW264.7 cells assessed as inhibition of LPS-induced IL-1beta level
- Type: toxicity, cell-based
- measurement-context: read-out: Ratio CC50/IC50
Answer 0.0 if selectivity ratio is under 2, and 1.0 if it is 2 or more.

Examples from the recorded data:
{"compound": "CC1(C)CC[C@]2(C(=O)O)CC[C@]3(C)C(=CC[C@@H]4[C@@]5(C)Cc6cn(CCCN)nc6C(C)(C)[C@@H]5CC[C@]43C)[C@@H]2C1", "class-label": 1.0}
{"compound": "CC1(C)CC[C@]2(C(=O)O)CC[C@]3(C)C(=CC[C@@H]4[C@@]5(C)Cc6cn(C7CCC(F)(F)CC7)nc6C(C)(C)[C@@H]5CC[C@]43C)[C@@H]2C1", "class-label": 0.0}
{"compound": "CC1(C)CC[C@]2(C(=O)O)CC[C@]3(C)C(=CC[C@@H]4[C@@]5(C)Cc6cn(C(CO)CO)nc6C(C)(C)[C@@H]5CC[C@]43C)[C@@H]2C1", "class-label": 0.0}
{"compound": "CC1(C)CC[C@]2(C(=O)O)CC[C@]3(C)C(=CC[C@@H]4[C@@]5(C)Cc6cn(C7CCCNC7)nc6C(C)(C)[C@@H]5CC[C@]43C)[C@@H]2C1 (stereo partly specified)", "class-label": 1.0}
{"compound": "CC1(C)CC[C@]2(C(=O)O)CC[C@]3(C)C(=CC[C@@H]4[C@@]5(C)Cc6cn(CCBr)nc6C(C)(C)[C@@H]5CC[C@]43C)[C@@H]2C1", "class-label": 1.0}

Shifting focus to the compound that follows.
Reported selectivity ratio at or above 2? CC1(C)CC[C@]2(C(=O)O)CC[C@]3(C)C(=CC[C@@H]4[C@@]5(C)CC[C@H](O)C(C)(C)[C@@H]5CC[C@]43C)[C@@H]2C1 [OLEANOLIC_ACID]
0.0
